Sourced from patent US20220356229A1

Target: SARS-CoV-2 full length Spike protein, wild type (SARS-CoV-2, UniProt P0DTC2 14-1208)
measurement_kind: median fluorescence, fold over isotype

binder: antibody 446 (antibody, V domains shown) VH: QVQLVESGGGVVQPGRSLRLSCAASGFTFSSYAMHWVRQAPGKGLEWVAVISYDGSNKYYADSVKGRFTISRDNSKNTLYLQMNSLRAEDTAVYYCARPNSGSYFGYFQHWGQGTLVTVSS VL: QSVLTQPPSVSGAPGQRVTISCTGSSSNIGAGYDVHWYQQLPGTAPKLLIYGNSNRPSGVPDRFSGSKSGTSASLAITGLQAEDEADYYCQSYDSSLSGFYVFGTGTKVTVL
experimental_value: 435 fold over isotype control
